# system: T1, human Claudin18.2 (CLDN18.2) (human, UniProt P56856 1-261)
# T1 construct: the cell line is named under assay; also called human Claudine18.2; hClaudin18.2
# assay name: FACS on CHOK1-18.2 cells, antibody at 50 µg/ml
For each of the binders below, state its MAX MFI.
When you answer, write just the number.

Q: Name the reported MAX MFI value associated with the binder chAb30 (antibody, V domains shown) VH: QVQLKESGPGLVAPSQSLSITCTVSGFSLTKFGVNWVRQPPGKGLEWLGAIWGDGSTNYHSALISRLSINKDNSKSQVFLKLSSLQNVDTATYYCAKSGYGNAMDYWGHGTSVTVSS VL: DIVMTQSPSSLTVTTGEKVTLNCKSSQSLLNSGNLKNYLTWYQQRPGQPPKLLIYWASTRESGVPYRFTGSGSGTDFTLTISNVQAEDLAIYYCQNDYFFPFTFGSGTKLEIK
A: 65000

Q: Need MAX MFI of chAb11 (antibody, V domains shown) VH: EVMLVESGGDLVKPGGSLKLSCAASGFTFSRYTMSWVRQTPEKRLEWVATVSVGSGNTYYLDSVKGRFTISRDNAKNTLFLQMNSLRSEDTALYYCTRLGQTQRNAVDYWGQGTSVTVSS VL: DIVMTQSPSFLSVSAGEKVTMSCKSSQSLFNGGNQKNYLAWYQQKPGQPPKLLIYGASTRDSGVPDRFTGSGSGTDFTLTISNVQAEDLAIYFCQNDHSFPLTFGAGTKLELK , thanks.
A: 85600

Q: For the binder shown here, chAb05 (antibody, V domains shown) VH: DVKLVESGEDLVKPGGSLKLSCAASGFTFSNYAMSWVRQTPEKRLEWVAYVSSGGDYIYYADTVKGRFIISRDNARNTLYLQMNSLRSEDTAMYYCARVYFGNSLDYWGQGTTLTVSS VL: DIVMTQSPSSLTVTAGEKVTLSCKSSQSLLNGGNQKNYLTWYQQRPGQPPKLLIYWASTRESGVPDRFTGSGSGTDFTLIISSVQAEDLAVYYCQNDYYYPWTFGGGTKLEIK , give the reported MAX MFI.
A: 83900
